Hello, the source for this data is paper PMC8080530, in case you need it.

Measured Kd, listed per entry for reference.
Target: T1, human 14-3-3ζ, full length, 6His-Linker-h14-3-3 (human, UniProt P63104 1-245)
T1 chain: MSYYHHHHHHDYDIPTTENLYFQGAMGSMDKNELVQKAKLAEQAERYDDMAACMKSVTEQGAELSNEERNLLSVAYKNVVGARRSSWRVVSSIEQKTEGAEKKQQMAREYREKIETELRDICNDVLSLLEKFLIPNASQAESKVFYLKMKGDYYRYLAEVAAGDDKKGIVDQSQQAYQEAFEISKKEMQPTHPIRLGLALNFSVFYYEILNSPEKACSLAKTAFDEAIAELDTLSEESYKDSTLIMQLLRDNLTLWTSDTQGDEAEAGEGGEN
Assay: FP
Non-standard residues stand in square brackets, D forms with d. Primed or numbered codes have the meaning given here. No end group written: not given here. *: point of attachment. FITC′ = fluorescein isothiocyanate tag added on resin (method C); FITC = O=C1OC2(c3ccc(O)cc3Oc3cc(O)ccc32)c2ccc(NC(=S)*)cc21; pT = C[C@@H](OP(=O)(O)O)[C@H](N)C(=O)O; pS = N[C@@H](COP(=O)(O)O)C(=O)O
RESULT_TYPE: Kd

{"BINDER": "{FITC}-INEQRM[pT]LPCMYD (also: phosphothreonine at T635, place in chain not given here) [GR pT635, FITC-labelled 13-mer phosphopeptide]", "OBSERVED_RESULT": "55 µM"}
{"BINDER": "{FITC}-KTIVPATLPQLTP (also: phosphothreonine at T524, place in chain not given here) [GR_pT524, FITC-labelled 13-mer phosphopeptide]", "OBSERVED_RESULT": "38 µM"}
{"BINDER": "{FITC}-DLSKAV[pS]LSMGLY (peptide, UniProt P04150 77-89, looked up, glucocorticoid receptor (GR), human; 13-mer centred on S83; source: synthetic peptide) [GR pS83, FITC-labelled 13-mer phosphopeptide]", "OBSERVED_RESULT": "72 µM"}
{"BINDER": "{FITC′}-RSYRQS[pS]ANLLCF (peptide, UniProt P04150 611-623, looked up, also: phosphoserine at 617 (S6 or S7), glucocorticoid receptor (GR), human; 13-mer centred on S617; source: synthetic peptide) [GR_pS617, FITC-labelled 13-mer phosphopeptide]", "OBSERVED_RESULT": "25 µM"}
